B1: Chromodomain-helicase-DNA-binding protein 4, residues 444 to 496; numbered along this chain, Q14839 (parent)
chain: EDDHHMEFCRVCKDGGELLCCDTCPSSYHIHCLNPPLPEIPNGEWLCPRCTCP

variants of: B1; assay: abundance fitness (aPCA) (normalised: wild type 0, dead -1); higher = more abundant; growth selection in yeast, the domain comes from the species named; details: Homo sapiens
MEASURED ATTRIBUTE: abundance fitness
Please reply with the number alone, leaving off any unit.

Known abundance fitness results, listed for orientation:
Ask: What value of abundance fitness has been reported for the following variant? S26G
Result: 0.029

Ask: What value of abundance fitness has been reported for the following variant? H4K
Result: 0.119

Ask: What value of abundance fitness has been reported for the following variant? T23N
Result: 0.093

Ask: What value of abundance fitness has been reported for the following variant? P38N
Result: 0.065

Ask: What value of abundance fitness has been reported for the following variant? L46P
Result: -0.426

More entries:
Ask: What value of abundance fitness has been reported for the following variant? W45M
Result: -0.398

Ask: What value of abundance fitness has been reported for the following variant? D3Y
Result: 0.319

Ask: What value of abundance fitness has been reported for the following variant? G15P
Result: -0.154
